System: LRRK2
pKd: −log10 of the molar value.
Observation type: pKd

stdin: Return reported pKd; argument: CCn1c(-c2nonc2N)nc2ccccc21 [SB-693162/GW549034]
stdout: < 5.00

* * *

Test system: PRKX
Assay conditions: concentration: 1 μM, replicates: in singlicate; n = 1
Criterion: %Inh strictly under 20%. Met: Met. Not met: Not met.

Answered examples (2):
Cc1cc(Nc2nc(-c3cccc(C)n3)nc3ccccc23)ccn1 | Met
CN(C)c1cc(-c2ccc3c(N)n[nH]c3c2)nc(N)n1 | Met

stdin: Does this molecule meet the criterion %Inh < 20%? `CCS(=O)(=O)c1ccc(OC)c(Nc2ncc(-c3ccc(F)cc3)o2)c1.Cl`
stdout: Met

stdin: Let us now turn to `CCn1c(-c2nonc2N)nc2ccccc21`
stdout: Not met

stdin: Next molecule up: `COC(=O)c1c(-c2ccccc2)c2cc(Br)ccc2c(=O)n1Cc1ccc(S(C)(=O)=O)cc1`
stdout: Not met

* * *

The listing below reports pKd for compounds tested on TYK2(JH1domain-catalytic).
pKd here: minus log base 10 of the concentration, concentration in moles per litre.

COc1ccc(Nc2nccc(N3CCC(NS(=O)(=O)c4ccc(NC(C)=O)cc4)C3)n2)cc1 (centres unmarked) | 7.07

stdin: Entry COc1cc(Nc2nccc(N3CCC(NC(=O)C4COc5ccccc5O4)C3)n2)cc(OC)c1OC (centres unmarked) has what pKd?
stdout: 5.82

* * *

Test system: VEGFR2
Construct: gene KDR
Assay conditions: concentration: 1 μM, replicates: in singlicate; n = 1
If the reported %Inh equals or exceeds 3%, assign rule met. If not, assign rule not met.

Illustrative cases are given below, each with its answer.
COC(=O)c1c(-c2ccccc2)c2cc(C)ccc2c(=O)n1Cc1ccccc1 | rule not met
CCC(=O)c1c(-c2ccccc2)c2cc(Cl)ccc2c(=O)n1Cc1cc(S(C)(=O)=O)n(CCC(C)(C)O)n1 | rule not met
COc1cc2nccc(Nc3ccc(OCc4ccc(NC(C)=O)cc4)cc3)c2cc1OC.Cl | rule met
Cc1cccc(-c2cc(-c3c[nH]nc3-c3ccccn3)ccn2)c1 | rule not met
Fc1cccc(CSc2nnc(-c3ccc4c(c3)CCO4)o2)c1 | rule not met

stdin: Could you verify whether the entry `Cc1ccc(-c2ccc3c(ccc4sc5c(c43)NC[C@@H](C)N=C5N(C)C)n2)cn1` shows %Inh of no less than 3%?
stdout: rule not met

stdin: Now the molecule `CCCNC(=O)Nc1ccc(Oc2ncnc3ccn(C)c23)cc1`
stdout: rule met

stdin: And `CCC(=O)c1c(-c2ccccc2)c2cc(Cl)ccc2c(=O)n1Cc1ccc(C(=O)O)cc1` ?
stdout: rule not met

stdin: Try the molecule `CN1C(=O)C(Nc2ccccc2)=C(c2ccccc2)C1=O`
stdout: rule not met

stdin: What would you report for `COc1ccc(-c2cc3c(C)nc(N)nc3n([C@H]3CC[C@H](OCCO)CC3)c2=O)cn1` ?
stdout: rule not met

stdin: How about this molecule: `Cc1ccccc1COc1cc(-n2cnc3cc(Cl)ccc32)sc1C(N)=O`
stdout: rule met

* * *

Tested on: CAMKK2
Assay conditions: concentration: 1 μM, replicates: in singlicate; n = 1
Listing of recorded %Inh by entry.
Write the answer as a number in %, unit excluded.

stdin: Looking for the measured %Inh of `Cc1cccc(-c2cc(-c3c[nH]nc3-c3ccccn3)ccn2)c1` , can you help?
stdout: 7

* * *

Test system: PIK3C2G
Assay conditions: concentration: 1 μM, replicates: in singlicate; n = 1
List of %Inh values.

Past entries and their recorded results:
O=C(NCCNc1ccnc(Nc2ccc(F)cc2)n1)Nc1ccc2c(c1)OCO2 | 0%
COC(=O)c1c(-c2ccccc2)c2cc(C)ccc2c(=O)n1Cc1ccccc1 | 0%
Nc1ncnc2c1ncn2-c1cccc(F)c1 | 35%
COc1ccc(CNC(=O)NC2CCN(c3ccnc(Nc4ccc(F)cc4)n3)C2)cc1 (stereo not shown) | 0%
Nc1nc(N)c2nc(-c3ccccc3)[nH]c2n1 | 68%

stdin: Find the recorded %Inh belonging to `Cc1ccc(-c2ccc3c(ccc4sc5c(c43)NC[C@@H](C)N=C5N(C)C)n2)cn1` and report it.
stdout: 0%

stdin: Also `COc1cccc(C2=C(N(C)c3ccccc3)C(=O)NC2=O)c1` ?
stdout: 0%

* * *

System: PHKG1
Assay conditions: concentration: 1 μM, replicates: in singlicate; n = 1
Observation type: %Inh
Respond with a number, then the unit of measure.

Sample answers from the record:
COc1cc(Nc2nccc(N3CCC(NC(=O)C(C)c4ccc(Cl)cc4)C3)n2)cc(OC)c1OC (stereo not shown) [GSK1379757] | 0%
CCC(=O)c1c(-c2ccccc2)c2cc(Cl)ccc2c(=O)n1Cc1cc(S(C)(=O)=O)n(CCC(C)(C)O)n1 | 18%
COc1cc(OC)cc(-c2cc3cnc(N)nc3nc2NC(=O)NC(C)(C)C)c1 | 13%

stdin: Using the record for COc1cc2nccc(Nc3ccc(OCc4ccc(NC(C)=O)cc4)cc3)c2cc1OC.Cl [GW440135] , report its %Inh.
stdout: 0%

* * *

Tested on: SLK
Assay conditions: concentration: 1 μM, replicates: in singlicate; n = 1
Observation type: %Inh (%)
Numbers only here, please. The scale is %.

# annotated cases, reported %Inh shown
COc1cc2nccc(Nc3cccc(Oc4ccccc4)c3)c2cc1OC.Cl | 21
Cc1ccccc1COc1cc(-n2cnc3cc(Cl)ccc32)sc1C(N)=O | 73
CCc1ccc(-c2ccc3c(c2)-c2nn(C)cc2S(=O)(=O)N3C)cc1 | 12
Cc1nnc(-c2ccc3ncn(-c4ccc(S(C)=O)cc4)c3c2)o1 (stereo not drawn) | 14
COc1cc(Nc2nccc(N3CCC(NC(=O)C(C)c4ccc(Cl)cc4)C3)n2)cc(OC)c1OC (stereo not drawn) | 1
CCc1nc(-c2cccc(C)c2)c(-c2ccncc2)s1 | 26
FC(F)(F)c1ccc(-c2ncn(CCCN3CCOCC3)c2-c2ccncc2)cc1 | 0
COc1cc2ncn(-c3cc(OCc4ccncc4)c(C(N)=O)s3)c2cc1OC | 43

Next:
stdin: # lookup: %Inh of `O=C(Nc1n[nH]c2nc(-c3ccccc3)c(Cl)cc12)C1CC1`
stdout: 15

* * *

Overview of recorded %Inh for various compounds
System: PRKD3
Assay conditions: concentration: 1 μM, replicates: in singlicate; n = 1
Kindly provide the numeric value in % only, without the unit symbol.

Example results:
OCCCNc1nccc(-c2c(-c3cccc(C(F)(F)F)c3)nn3cc(C(F)(F)F)ccc23)n1 [GW630813] | 0
O=C(NCc1cccs1)c1cc(C(=O)c2c(Cl)cccc2Cl)c[nH]1 [GW823670] | 13
CCn1c(-c2nonc2N)nc2ccccc21 [SB-693162/GW549034] | 0
O=C(Nc1ccc2c(c1)OCO2)NC1CCN(c2ccnc(NCc3ccc(F)cc3)n2)CC1 [GSK1379859] | 34
Cc1nnc(-c2ccc3ncn(-c4ccc(S(C)=O)cc4)c3c2)o1 (stereo not drawn) | 0
COc1ccc(-c2cc3c(C)nc(N)nc3n([C@H]3CC[C@H](O)CC3)c2=O)cn1 | 0
Cc1nnc(-c2ccc(C)c(-c3ccc(C(=O)O)cc3)c2)o1 [GW608005] | 19
Nc1ncnc2c1ncn2-c1cccc(F)c1 [SKF-97560] | 9

# context switch: different compound, same %Inh
stdin: // query %Inh value for entry Cc1c(Cn2c(C)nn3c(=O)cc(N4CCO[C@H](C)C4)nc23)cccc1C(F)(F)F [GSK2373690]
stdout: 0

* * *

Below, each of the molecules is paired with its reported %Inh value.
Tested on: NLK
Assay conditions: concentration: 1 μM, replicates: in singlicate; n = 1
Numeric answer plus unit only.

stdin: Name the recorded %Inh for `Cc1cccc(-c2cc(-c3c[nH]nc3-c3ccccn3)ccn2)c1` .
stdout: 32%

stdin: Check `CN(C)c1cc(-c2ccc3c(N)n[nH]c3c2)nc(N)n1` too.
stdout: 1%

stdin: Ok, now `Nc1ncnc2c1ncn2-c1ccc(Cl)cc1`
stdout: 0%

* * *

Tested on: PIKFYVE
Assay conditions: concentration: 1 μM, replicates: in singlicate; n = 1
Each entry below carries its recorded %Inh.
Answer with a number only, understood to be in %.

Below: 4 compounds and their reported %Inh.
CN1C(=O)C(Nc2ccccc2)=C(c2ccccc2)C1=O | 9
Cc1nnc(-c2ccc(C)c(-c3ccc(C(=O)O)cc3)c2)o1 | 0
CCn1c(-c2nonc2N)nc2ccccc21 | 0
COc1ccc(CNC(=O)NC2CCN(c3ccnc(Nc4ccc(F)cc4)n3)C2)cc1 (stereo not shown) | 0

stdin: Recorded %Inh for `Cc1nn2c(=O)cc(N3CCOCC3)nc2n1Cc1cccc(Cl)c1Cl` with PIKFYVE, please?
stdout: 62

stdin: Subsequent entry: `CC(C)(C)c1ccc(C(=O)Nc2cn3cc(-c4ccccc4)ccc3n2)cc1`
stdout: 27

stdin: Same lookup for `O=c1cc(N2CCOCC2)nc2n(Cc3ccc(F)c(Cl)c3)ccn12` , please.
stdout: 0

stdin: Entry `Cl.NS(=O)(=O)c1cccc(Nc2cc(-c3ccc(F)cc3)n[nH]2)c1` please
stdout: 0

stdin: Another compound to check: `CCC(=O)c1c(-c2ccccc2)c2cc(Cl)ccc2c(=O)n1Cc1cc(C(=O)NC2CC2)n(C)n1`
stdout: 25

stdin: // query: `COc1cc(OC)cc(-c2cc3cnc(N)nc3nc2NC(=O)NC(C)(C)C)c1`
stdout: 44

stdin: Also, `COC(=O)c1c(-c2ccccc2)c2cc(Br)ccc2c(=O)n1Cc1ccc(NC(=O)CCC(=O)O)cc1` please.
stdout: 5

stdin: Likewise for `O=C(NCCNc1ccnc(Nc2ccc(F)cc2)n1)Nc1ccc2c(c1)OCO2` ?
stdout: 8

stdin: Ok, now COc1cc(Nc2nccc(N3CCC(NC(=O)C(C)c4ccc(Cl)cc4)C3)n2)cc(OC)c1OC (stereo not shown)
stdout: 0

stdin: Another: `Cc1c(Cn2c(C)nn3c(=O)cc(N4CCO[C@H](C)C4)nc23)cccc1C(F)(F)F`
stdout: 0

stdin: Now try `Cc1cc(Nc2nc(-c3cccc(C)n3)nc3ccccc23)ccn1` .
stdout: 53

stdin: Try `Cc1nc(N(C)[C@H]2CN(C(=O)CC#N)CC[C@H]2C)c2cc[nH]c2n1` next.
stdout: 2

Every entry's value here was drawn from paper PMC5540273.
